I'd appreciate it if you could supply Zeta-potential of siRNA-lipid complexes values for the items below.
- measurement.description: Zeta-potential of siRNA-lipid complexes (Malvern Zetasizer)
- Format: physicochemical
- condition.info: pH = 7.4, N/P = 2
Give bare numbers, in mV.

[[record]]
compound = "CCCCC/C=C\\C/C=C\\CCCCCCCC(=O)NC(CS)C(=O)NC(Cc1cnc[nH]1)C(=O)NCCNC(=O)CCN(CCCNCCCCNCCCN)CCC(=O)NCCNC(=O)C(Cc1cnc[nH]1)NC(=O)C(CS)NC(=O)CCCCCCC/C=C\\C/C=C\\CCCCC (stereo not shown) [SHCLn]"
quantitative_result = "−32.09"

[[record]]
compound = "CCCCC/C=C\\C/C=C\\CCCCCCCC(=O)NC(CS)C(=O)NCCNC(=O)CCN(CCCNCCCCNCCCN)CCC(=O)NCCNC(=O)C(CS)NC(=O)CCCCCCC/C=C\\C/C=C\\CCCCC (stereo not shown)"
quantitative_result = "−28.35"

[[record]]
compound = "CCCCCCCC/C=C\\CCCCCCCC(=O)NC(CS)C(=O)NC(Cc1cnc[nH]1)C(=O)NCCNC(=O)CCN(CCN)CCC(=O)NCCNC(=O)C(Cc1cnc[nH]1)NC(=O)C(CS)NC(=O)CCCCCCC/C=C\\CCCCCCCC (stereo not shown)"
quantitative_result = "−23.14"

[[record]]
compound = "CCCCCCCC/C=C\\CCCCCCCC(=O)N[C@@H](CS)C(=O)NCCNC(=O)CCN(CCN)CCC(=O)NCCNC(=O)[C@H](CS)NC(=O)CCCCCCC/C=C\\CCCCCCCC"
quantitative_result = "−32.20"


Dear colleague, could you send me Zeta-potential of siRNA-lipid complexes for each of the items below? Thanks.
1. CCCCCCCC/C=C\CCCCCCCC(=O)NC(CS)C(=O)NCCNC(=O)CCN(CCCNCCCCNCCCN)CCC(=O)NCCNC(=O)C(CS)NC(=O)CCCCCCC/C=C\CCCCCCCC (stereo not shown)
2. CCCCCCCC/C=C\CCCCCCCC(=O)NC(CS)C(=O)NC(Cc1cnc[nH]1)C(=O)NCCNC(=O)CCN(CCCNCCCCNCCCN)CCC(=O)NCCNC(=O)C(Cc1cnc[nH]1)NC(=O)C(CS)NC(=O)CCCCCCC/C=C\CCCCCCCC (stereo not shown)
3. CCCCC/C=C\C/C=C\CCCCCCCC(=O)NC(CS)C(=O)NC(Cc1cnc[nH]1)C(=O)NCCNC(=O)CCN(CCN)CCC(=O)NCCNC(=O)C(Cc1cnc[nH]1)NC(=O)C(CS)NC(=O)CCCCCCC/C=C\C/C=C\CCCCC (stereo not shown) [EHCLn]

["−29.49", "−32.09", "−23.73"]

###

- measurement.description: Nanoparticle diameter and polydispersity by dynamic light scattering (Malvern Zetasizer)
- Assay type: physicochemical
- condition.info: siRNA-lipid complexes, N/P = 2
attribute.measured: Nanoparticle diameter as measured by dynamic light scattering (nm)
Answers are plain numbers, in nm.

Reference set (4 entries):
[[record]]
compound = "CCCCC/C=C\\C/C=C\\CCCCCCCC(=O)NC(CS)C(=O)NC(Cc1cnc[nH]1)C(=O)NCCNC(=O)CCN(CCCNCCCCNCCCN)CCC(=O)NCCNC(=O)C(Cc1cnc[nH]1)NC(=O)C(CS)NC(=O)CCCCCCC/C=C\\C/C=C\\CCCCC (stereo not shown) [SHCLn]"
quantitative_result = 559

[[record]]
compound = "CCCCCCCC/C=C\\CCCCCCCC(=O)NC(CS)C(=O)NCCNC(=O)CCN(CCCNCCCCNCCCN)CCC(=O)NCCNC(=O)C(CS)NC(=O)CCCCCCC/C=C\\CCCCCCCC (stereo not shown)"
quantitative_result = 407

[[record]]
compound = "CCCCCCCC/C=C\\CCCCCCCC(=O)NC(CS)C(=O)NC(Cc1cnc[nH]1)C(=O)NCCNC(=O)CCN(CCCNCCCCNCCCN)CCC(=O)NCCNC(=O)C(Cc1cnc[nH]1)NC(=O)C(CS)NC(=O)CCCCCCC/C=C\\CCCCCCCC (stereo not shown)"
quantitative_result = 441

[[record]]
compound = "CCCCCCCC/C=C\\CCCCCCCC(=O)NC(CS)C(=O)NC(Cc1cnc[nH]1)C(=O)NCCNC(=O)CCN(CCN)CCC(=O)NCCNC(=O)C(Cc1cnc[nH]1)NC(=O)C(CS)NC(=O)CCCCCCC/C=C\\CCCCCCCC (stereo not shown)"
quantitative_result = 480


Dear colleague, could you send me Nanoparticle diameter as measured by dynamic light scattering for each of the items below? Thanks.
1. CCCCCCCC/C=C\CCCCCCCC(=O)N[C@@H](CS)C(=O)NCCNC(=O)CCN(CCN)CCC(=O)NCCNC(=O)[C@H](CS)NC(=O)CCCCCCC/C=C\CCCCCCCC
2. CCCCC/C=C\C/C=C\CCCCCCCC(=O)NC(CS)C(=O)NC(Cc1cnc[nH]1)C(=O)NCCNC(=O)CCN(CCN)CCC(=O)NCCNC(=O)C(Cc1cnc[nH]1)NC(=O)C(CS)NC(=O)CCCCCCC/C=C\C/C=C\CCCCC (stereo not shown) [EHCLn]

1. 468
2. 403

Give the reported Nanoparticle diameter as measured by dynamic light scattering for this compound. CCCCC/C=C\C/C=C\CCCCCCCC(=O)NC(CS)C(=O)NCCNC(=O)CCN(CCCNCCCCNCCCN)CCC(=O)NCCNC(=O)C(CS)NC(=O)CCCCCCC/C=C\C/C=C\CCCCC (stereo not shown) 482

###

- measurement.description: Zeta-potential of siRNA-lipid complexes (Malvern Zetasizer)
- Type: physicochemical
- condition.info: pH = 7.4, N/P = 10
- Procedure: The cationic lipid carriers are dissolved in ethanol at a stock concentration of 2.5 mM, while all siRNA is reconstituted in nuclease-free water at a 0.25 μg/μL (18.8 μM) concentration. […] A linear standard curve was utilized to calculate the encapsulation efficiencies from signal intensities measured by a SpectraMax microplate reader (Molecular Devices).
I'd appreciate it if you could supply Zeta-potential of siRNA-lipid complexes values for the items below.
Give bare numbers, in mV.

Reference set (2 entries):
[[record]]
compound = "CCCCC/C=C\\C/C=C\\CCCCCCCC(=O)NC(CS)C(=O)NCCNC(=O)CCN(CCCNCCCCNCCCN)CCC(=O)NCCNC(=O)C(CS)NC(=O)CCCCCCC/C=C\\C/C=C\\CCCCC (stereo not shown)"
attribute_measured = "Zeta-potential of siRNA-lipid complexes"
unit_symbol = "mV"
quantitative_result = 28.59

[[record]]
compound = "CCCCCCCC/C=C\\CCCCCCCC(=O)NC(CS)C(=O)NC(Cc1cnc[nH]1)C(=O)NCCNC(=O)CCN(CCN)CCC(=O)NCCNC(=O)C(Cc1cnc[nH]1)NC(=O)C(CS)NC(=O)CCCCCCC/C=C\\CCCCCCCC (stereo not shown)"
attribute_measured = "Zeta-potential of siRNA-lipid complexes"
unit_symbol = "mV"
quantitative_result = 18.80


Dear colleague, could you send me Zeta-potential of siRNA-lipid complexes for each of the items below? Thanks.
1. CCCCCCCC/C=C\CCCCCCCC(=O)NC(CS)C(=O)NCCNC(=O)CCN(CCCNCCCCNCCCN)CCC(=O)NCCNC(=O)C(CS)NC(=O)CCCCCCC/C=C\CCCCCCCC (stereo not shown)
2. CCCCC/C=C\C/C=C\CCCCCCCC(=O)NC(CS)C(=O)NC(Cc1cnc[nH]1)C(=O)NCCNC(=O)CCN(CCN)CCC(=O)NCCNC(=O)C(Cc1cnc[nH]1)NC(=O)C(CS)NC(=O)CCCCCCC/C=C\C/C=C\CCCCC (stereo not shown) [EHCLn]
3. CCCCCCCC/C=C\CCCCCCCC(=O)N[C@@H](CS)C(=O)NCCNC(=O)CCN(CCN)CCC(=O)NCCNC(=O)[C@H](CS)NC(=O)CCCCCCC/C=C\CCCCCCCC
4. CCCCC/C=C\C/C=C\CCCCCCCC(=O)NC(CS)C(=O)NC(Cc1cnc[nH]1)C(=O)NCCNC(=O)CCN(CCCNCCCCNCCCN)CCC(=O)NCCNC(=O)C(Cc1cnc[nH]1)NC(=O)C(CS)NC(=O)CCCCCCC/C=C\C/C=C\CCCCC (stereo not shown) [SHCLn]
5. CCCCCCCC/C=C\CCCCCCCC(=O)NC(CS)C(=O)NC(Cc1cnc[nH]1)C(=O)NCCNC(=O)CCN(CCCNCCCCNCCCN)CCC(=O)NCCNC(=O)C(Cc1cnc[nH]1)NC(=O)C(CS)NC(=O)CCCCCCC/C=C\CCCCCCCC (stereo not shown)

[23.29, 11.34, 25.68, 25.59, 21.76]

###

I'd appreciate it if you could supply Polydispersity of siRNA-lipid complexes values for the items below.
- measurement.description: Nanoparticle diameter and polydispersity by dynamic light scattering (Malvern Zetasizer)
- Assay type: physicochemical
- condition.info: N/P = 2
- Method: The cationic lipid carriers are dissolved in ethanol at a stock concentration of 2.5 mM, while all siRNA is reconstituted in nuclease-free water at a 0.25 μg/μL (18.8 μM) concentration. […] A linear standard curve was utilized to calculate the encapsulation efficiencies from signal intensities measured by a SpectraMax microplate reader (Molecular Devices).

Reference set (6 entries):
[[record]]
compound = "CCCCC/C=C\\C/C=C\\CCCCCCCC(=O)NC(CS)C(=O)NC(Cc1cnc[nH]1)C(=O)NCCNC(=O)CCN(CCCNCCCCNCCCN)CCC(=O)NCCNC(=O)C(Cc1cnc[nH]1)NC(=O)C(CS)NC(=O)CCCCCCC/C=C\\C/C=C\\CCCCC (stereo not shown) [SHCLn]"
result = 0.246

[[record]]
compound = "CCCCCCCC/C=C\\CCCCCCCC(=O)NC(CS)C(=O)NC(Cc1cnc[nH]1)C(=O)NCCNC(=O)CCN(CCCNCCCCNCCCN)CCC(=O)NCCNC(=O)C(Cc1cnc[nH]1)NC(=O)C(CS)NC(=O)CCCCCCC/C=C\\CCCCCCCC (stereo not shown)"
result = 0.238

[[record]]
compound = "CCCCCCCC/C=C\\CCCCCCCC(=O)N[C@@H](CS)C(=O)NCCNC(=O)CCN(CCN)CCC(=O)NCCNC(=O)[C@H](CS)NC(=O)CCCCCCC/C=C\\CCCCCCCC"
result = 0.245

[[record]]
compound = "CCCCCCCC/C=C\\CCCCCCCC(=O)NC(CS)C(=O)NC(Cc1cnc[nH]1)C(=O)NCCNC(=O)CCN(CCN)CCC(=O)NCCNC(=O)C(Cc1cnc[nH]1)NC(=O)C(CS)NC(=O)CCCCCCC/C=C\\CCCCCCCC (stereo not shown)"
result = 0.276

[[record]]
compound = "CCCCCCCC/C=C\\CCCCCCCC(=O)NC(CS)C(=O)NCCNC(=O)CCN(CCCNCCCCNCCCN)CCC(=O)NCCNC(=O)C(CS)NC(=O)CCCCCCC/C=C\\CCCCCCCC (stereo not shown)"
result = 0.339

[[record]]
compound = "CCCCC/C=C\\C/C=C\\CCCCCCCC(=O)NC(CS)C(=O)NCCNC(=O)CCN(CCCNCCCCNCCCN)CCC(=O)NCCNC(=O)C(CS)NC(=O)CCCCCCC/C=C\\C/C=C\\CCCCC (stereo not shown)"
result = 0.298


Attention now turns to another entry.
Give the reported Polydispersity of siRNA-lipid complexes for this compound. CCCCC/C=C\C/C=C\CCCCCCCC(=O)NC(CS)C(=O)NC(Cc1cnc[nH]1)C(=O)NCCNC(=O)CCN(CCN)CCC(=O)NCCNC(=O)C(Cc1cnc[nH]1)NC(=O)C(CS)NC(=O)CCCCCCC/C=C\C/C=C\CCCCC (stereo not shown) [EHCLn] 0.299

Values from patent US11129845B2
